I'd appreciate it if you could supply pIC50 values for the items below.
target: human FLT3-ITD enzyme (Homo sapiens, UniProt P36888); experiment: FLT3 enzyme inhibitory ability (ADP-Glo kinase assay); conditions: human FLT3-ITD enzyme 10 ng, ATP 10 μM, 25° C. 1 hour
pIC50: −log10 of the molar value.

For the compound CN1CCN(C(=O)c2ccc(Nc3nc(N4N=CCC4c4ccccc4)c4sccc4n3)cc2)CC1 (stereo not shown) , what pIC50 is on record?
< 6.30

For the compound CN1CCN(C2CCN(c3ccc(Nc4nc(N5N=CCC5c5ccccc5)c5sccc5n4)cc3)CC2)CC1 (stereo not shown) , what pIC50 is on record?
≤ 6.60

For the compound `CC(C)(O)CN1CCc2cc(Nc3nc(N4OCC[C@H]4c4ccccc4)c4cc[nH]c4n3)ccc2C1` , what pIC50 is on record?
6.30 to 6.60

For the compound `COc1cc(N2CCC(N3CCN(C)CC3)CC2)ccc1Nc1nc(N2OCC[C@H]2c2ccccc2)c2c(C#N)c[nH]c2n1` , what pIC50 is on record?
< 6.30

For the compound COc1cc(Nc2nc(N3N=CCC3c3ccccc3)c3cc[nH]c3n2)ccc1N1CCC(N2CCN(C)CC2)CC1 (stereo not shown) , what pIC50 is on record?
6.30 to 6.60

For the compound `CN1CCN(c2ccc(Nc3nc(N4OCC[C@H]4c4cccnc4)c4cc[nH]c4n3)cc2)CC1` , what pIC50 is on record?
≤ 6.60

For the compound `c1ccc([C@@H]2CCON2c2nc(Nc3ccc4c(c3)CCNC4)nc3[nH]ccc23)cc1` , what pIC50 is on record?
≤ 6.60
